Value source: PubChem BioAssay (NCATS)

Assay: qHTS to identify inhibitors of the type 1 interferon - major histocompatibility complex class I in skeletal muscle: primary screen against the NCATS Mechanism Interrogation Plate v5.0 (MIPE) Libary (AID 1347411); note: nearly all actives have a fitted effect of over 65% in size
Settings: iHSKM cells + IFN-b, HiBiT-tagged MHC-I luminescence, 24 h; series mostly up to 45.8 µM
Results filed as inconclusive are left out. Activity calls are given as the source filed them. Calls come from the whole dose curve; as a rule, active = well fitted inhibition curve with a large enough effect; inconclusive = small, poorly fitted or top-dose-only effect; inactive = no such curve, though single readings can be large or run the other way.
Classes to choose from: T (active), F (inactive)

Would you please look over these solved cases?
COMPOUND: COCCOc1nc(-c2ccc(Cl)c(Cl)c2)n(-c2ccc(NC(=O)CCl)cc2)n1
CLASS: T
//
COMPOUND: Clc1ccc(CCC(Cn2ccnc2)Sc2c(Cl)cccc2Cl)cc1 (stereo not given)
CLASS: F
//
COMPOUND: COc1ccc2cccc(CCNC(C)=O)c2c1
CLASS: F
//
COMPOUND: CCOC(CN1C(=O)[C@](CC(=O)Nc2ccc(C)cc2)(NC(=O)Nc2ccc(C)cc2)c2ccccc21)OCC
CLASS: F
//
COMPOUND: CC#CCn1c(N2CCC[C@@H](N)C2)nc2c1c(=O)n(Cc1nc(C)c3ccccc3n1)c(=O)n2C
CLASS: F
//
COMPOUND: O=c1cc(N2CCOCC2)oc2c(-c3cccc4c3sc3ccccc34)cccc12
CLASS: F
//
COMPOUND: COc1cc(N2CCC(N3CCN(C)CC3)CC2)ccc1Nc1ncc(Cl)c(Nc2ccccc2S(=O)(=O)C(C)C)n1
CLASS: T
//
COMPOUND: O=C(Nc1cc(Cl)cc2c1[nH]c1cnccc12)c1cccnc1
CLASS: F
//
COMPOUND: CCn1c(C(=O)N(C2CC2)C2CC2)cc2c3c(ncn3C)c(Nc3cc(C)n(C)n3)nc21
CLASS: F
//
COMPOUND: O=C(Nc1cccc(Br)c1)c1cccc(S(=O)(=O)N2CCCCCC2)c1
CLASS: F

Could you kindly confirm the outcome this assay logged for CC(C)(C)COc1ccc(-n2cc(C(=O)O)cn2)cc1C#N ?
F

Could you kindly confirm the outcome this assay logged for O=C(O)c1cc(O)c2c(c1)C(=O)c1cccc(O)c1C2=O ?
F

Could you kindly confirm the outcome this assay logged for CC1CCC(C(=O)N(c2cc(C#CC(C)(C)C)sc2C(=O)O)C2CCC(O)CC2)CC1 (stereo not given) ?
F

Could you kindly confirm the outcome this assay logged for NS(=O)(=O)c1cccc2c1C(=O)c1cccc(O)c1C2=O ?
T

Could you kindly confirm the outcome this assay logged for CC(=O)Oc1cc2c(s1)CCN(C(C(=O)C1CC1)c1ccccc1F)C2 (stereo not given) ?
F

Could you kindly confirm the outcome this assay logged for COc1cccc2c1CCCC2CCCN1CCN(C2CCCCC2)CC1 (stereo not given) ?
F

Could you kindly confirm the outcome this assay logged for C[C@]12CC[C@@H]3c4ccc(O)cc4C[C@@H](CCCCCCCCCS(=O)CCCC(F)(F)C(F)(F)F)[C@H]3[C@H]1CC[C@H]2O (stereo not given in full) ?
F

Could you kindly confirm the outcome this assay logged for CCCCCNC(=O)N1CCC(CN(Cc2ccc(Cl)cc2)Cc2ccc([N+](=O)[O-])s2)C1 (stereo not given) ?
F

Could you kindly confirm the outcome this assay logged for Clc1ccc(C(c2ccc(Cl)cc2)n2cc[n+](CC(OCc3ccc(Cl)cc3Cl)c3ccc(Cl)cc3Cl)c2)cc1 (stereo not given) ?
T

Could you kindly confirm the outcome this assay logged for C[C@H](NC(=O)C(=O)Nc1ccccc1C(C)(C)C)C(=O)N[C@@H](CC(=O)O)C(=O)COc1c(F)c(F)cc(F)c1F ?
T
